Assay: Measurement of Log P values by HPLC on reversed phase columns (EEC directive 79/831 Annex V.A8)
Type: physicochemical
Details: Table 1, compounds of formula (I); method [a]: LC-UV, acidic range, 0.1% formic acid in water and acetonitrile
Please assign a class to every record based on measured chromatographic logP, with ranges low class = under 3, middle class = from 3 up to 4, high class = 4 and over

Cc1ccc([C@@H]2CON=C(c3c(Sc4ccc5ccccc5c4)nnc(C)c3C)N2)s1 (racemic) [Compound I-138]	middle class

Band assignment needed for Cc1ccc(C[C@H]2CON=C(c3c(Sc4cccc(C(F)(F)F)c4)cnc4ccccc34)N2)c(C)c1 (racemic) [Compound I-030] please. high class

Band assignment needed for Cc1ccc([C@H]2CON=C(c3c(Sc4ccncc4)nnc(C)c3C)N2)s1 (racemic) [Compound I-072] please. low class

Band assignment needed for Cc1ccc([C@H]2CON=C(c3c(Sc4ccc(F)c(F)c4)nnc4ccccc34)N2)s1 (racemic) [Compound I-124] please. middle class

Band assignment needed for Cc1cccc(Sc2nnc(C)c(C)c2C2=NOC[C@H](c3ccc(C)s3)N2)n1 (racemic) [Compound I-127] please. low class

Band assignment needed for Cc1ccc([C@H]2CON=C(c3c(Sc4cc(Cl)cc(Cl)c4)nnc4ccccc34)N2)s1 (racemic) [Compound I-120] please. high class

Band assignment needed for FC(F)(F)c1ccc(Sc2nnc(Cl)cc2C2=NOC[C@@H](Cc3ccc(Cl)cc3Cl)N2)cc1 (racemic) [Compound I-003] please. high class

Band assignment needed for Cc1cccc(Sc2cnc(Cl)cc2C2=NOC[C@@H](Cc3ccc(Cl)cc3Cl)N2)c1 (racemic) [Compound I-011] please. high class
